ASSAYED_SYSTEM: T1, human GIP receptor (human, UniProt P48546 22-466)
T1 sequence (looked up): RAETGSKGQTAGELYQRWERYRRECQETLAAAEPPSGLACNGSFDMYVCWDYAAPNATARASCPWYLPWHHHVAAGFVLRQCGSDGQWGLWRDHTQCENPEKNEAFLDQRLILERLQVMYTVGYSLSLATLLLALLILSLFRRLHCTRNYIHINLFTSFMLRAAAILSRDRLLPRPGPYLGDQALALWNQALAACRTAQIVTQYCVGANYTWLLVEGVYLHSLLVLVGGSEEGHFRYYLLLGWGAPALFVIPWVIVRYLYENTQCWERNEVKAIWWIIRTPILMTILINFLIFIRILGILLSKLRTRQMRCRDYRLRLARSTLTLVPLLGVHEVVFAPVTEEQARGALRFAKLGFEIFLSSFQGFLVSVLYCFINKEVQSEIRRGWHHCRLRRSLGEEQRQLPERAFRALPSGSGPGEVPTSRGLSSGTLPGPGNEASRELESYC
EXPERIMENT_SUMMARY: cell-based or functional assay
Bridge positions count the residues as written; N and C are the ends. Square brackets hold non-standard residues; d marks the D form. Ends that are not written are not given here. * marks the point of attachment. Acetyl(2-(4-imidazolyl)) = O=C(Cc1c[nH]cn1)*; Aib = CC(C)(N)C(=O)O
Below is a list of entries, each paired with its recorded In vitro activity compared to native peptide (%) vs GIP value.
Provide the reading as a plain figure in %.

Before answering, review these 3 worked examples.
# get_value(readout='In vitro activity compared to native peptide (%) vs GIP', item= H[Aib]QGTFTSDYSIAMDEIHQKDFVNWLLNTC (bridge 16-20) [Triple agonist of SEQ ID NO: 57] )
0.3

# get_value(readout='In vitro activity compared to native peptide (%) vs GIP', item= H[Aib]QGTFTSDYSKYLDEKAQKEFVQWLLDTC (bridge 16-20) [Triple agonist of SEQ ID NO: 30] )
0.8

# get_value(readout='In vitro activity compared to native peptide (%) vs GIP', item= Y[Aib]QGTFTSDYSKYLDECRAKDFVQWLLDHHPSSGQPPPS (bridge 16-20) [Triple agonist of SEQ ID NO: 66] )
17.2

Next:
# get_value(readout='In vitro activity compared to native peptide (%) vs GIP', item= Y[Aib]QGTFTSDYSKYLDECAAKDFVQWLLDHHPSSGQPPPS (bridge (positions not given here); ends not checked; also: ring formation between underlined amino acids, places not given here) [Triple agonist of SEQ ID NO: 67] )
39.8

# get_value(readout='In vitro activity compared to native peptide (%) vs GIP', item= H[Aib]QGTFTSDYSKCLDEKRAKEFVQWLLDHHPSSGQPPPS (bridge 16-20) [Triple agonist of SEQ ID NO: 65] )
11.6

# get_value(readout='In vitro activity compared to native peptide (%) vs GIP', item= {Acetyl(2-(4-imidazolyl))}-[Aib]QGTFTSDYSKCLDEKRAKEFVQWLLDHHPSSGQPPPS (bridge 15-19) [Triple agonist of SEQ ID NO: 74] )
1

Measured values drawn from patent US20230381281A1 for this set.
